system.name: Transient receptor potential cation channel subfamily M member 8 (Rattus norvegicus, UniProt Q8R455)
Sequence (Q8R455 whole entry): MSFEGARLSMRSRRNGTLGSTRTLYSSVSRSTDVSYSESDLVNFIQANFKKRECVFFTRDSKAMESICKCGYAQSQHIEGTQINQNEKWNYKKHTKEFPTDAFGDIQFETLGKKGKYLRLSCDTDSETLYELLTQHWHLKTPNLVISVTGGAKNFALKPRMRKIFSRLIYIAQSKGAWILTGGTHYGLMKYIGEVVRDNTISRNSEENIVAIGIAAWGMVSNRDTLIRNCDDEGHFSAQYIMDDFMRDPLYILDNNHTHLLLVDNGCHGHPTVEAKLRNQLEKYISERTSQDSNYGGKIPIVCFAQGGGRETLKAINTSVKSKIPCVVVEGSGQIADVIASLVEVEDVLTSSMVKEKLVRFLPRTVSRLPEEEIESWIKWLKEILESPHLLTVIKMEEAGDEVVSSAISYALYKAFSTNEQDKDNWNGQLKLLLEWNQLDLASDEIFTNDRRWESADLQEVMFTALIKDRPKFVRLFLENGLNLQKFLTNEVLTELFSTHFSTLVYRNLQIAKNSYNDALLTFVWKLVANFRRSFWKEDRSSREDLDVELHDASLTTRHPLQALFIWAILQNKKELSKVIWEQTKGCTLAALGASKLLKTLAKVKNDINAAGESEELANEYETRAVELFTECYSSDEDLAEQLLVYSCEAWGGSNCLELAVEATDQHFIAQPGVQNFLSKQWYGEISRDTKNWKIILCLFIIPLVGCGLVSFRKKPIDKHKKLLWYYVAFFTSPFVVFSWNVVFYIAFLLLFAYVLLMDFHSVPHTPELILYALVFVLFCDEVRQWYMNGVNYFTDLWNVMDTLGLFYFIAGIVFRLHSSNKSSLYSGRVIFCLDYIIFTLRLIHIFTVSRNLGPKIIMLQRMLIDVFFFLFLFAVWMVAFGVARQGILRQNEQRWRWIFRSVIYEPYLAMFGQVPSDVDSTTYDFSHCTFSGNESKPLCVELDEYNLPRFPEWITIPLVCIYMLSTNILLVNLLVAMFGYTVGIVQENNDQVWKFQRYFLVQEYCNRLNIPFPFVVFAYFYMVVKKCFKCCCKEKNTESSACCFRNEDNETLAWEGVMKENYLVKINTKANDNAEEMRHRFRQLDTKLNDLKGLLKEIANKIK
assay.overview: Antagonist activity at recombinant rat TRPM8 expressed in HEK293 cells assessed as inhibition of icilin-induced intracellular calcium accumulation preincubated for 5 mins followed by icilin addition by Fluo-4-AM probe-based spectrofluorimetric assay
pIC50: −log10 of the molar value.
value.kind: pIC50

1) COc1ccc(/C=C2\NC(=O)[C@@H]3Cc4cc(OC)c(OC)cc4[C@@H](c4cccc([N+](=O)[O-])c4)N3C2=O)cc1OC; 4.45
2) COc1cc2c(cc1OC)[C@H](c1ccc(C(F)(F)F)cc1)N(C(=O)N1CCc3cc(OC)c(OC)cc3[C@@H]1c1ccc(C(F)(F)F)cc1)CC2 (racemic); 6.74
3) COc1cc2c(cc1OC)[C@H](c1ccccc1)N(C(=O)N1CCc3cc(OC)c(OC)cc3[C@@H]1c1ccccc1)CC2 (racemic); 6.30
4) COc1cc2c(cc1OC)[C@H](c1cccc(-c3cccc([N+](=O)[O-])c3)n1)N(C(=O)N1CCc3cc(OC)c(OC)cc3[C@@H]1c1cccc(-c3cccc([N+](=O)[O-])c3)n1)CC2 (racemic); 4.36
5) CCC[C@H]1c2cc(OC)c(OC)cc2CCN1C(=O)N1CCc2cc(OC)c(OC)cc2[C@@H]1CCC (racemic); 5.07
6) COc1ccc(OC)c(C[C@@H]2NC(=O)[C@@H]3Cc4c(OC)ccc(OC)c4[C@@H](/C=C/c4ccccc4)N3C2=O)c1 (racemic); 4.51
7) COc1ccc(/C=C2\NC(=O)[C@@H]3Cc4cc(OC)c(OC)cc4[C@@H](c4ccccc4Cl)N3C2=O)cc1OC; 4.41
8) COc1cc(/C=C2\NC(=O)[C@@H]3Cc4c(OC)c(C)c(OC)c(OC)c4[C@@H](c4ccccc4)N3C2=O)c(OC)c(C)c1OC; 6.21
9) COc1cc2c(cc1OC)C(c1cccc(-c3cccc([N+](=O)[O-])c3)n1)=NCC2; 4.64
10) COc1cc2c(cc1OC)[C@H](c1ccc(Cl)cc1)N(C(=O)N1CCc3cc(OC)c(OC)cc3[C@@H]1c1ccc(Cl)cc1)CC2 (racemic); 6.37
11) COc1ccc(/C=C2\NC(=O)[C@@H]3Cc4cc(OC)c(OC)cc4[C@@H](c4ccc(Br)cc4)N3C2=O)cc1OC; 4.37
12) COc1c(C)c(OC)c(OC)c2c1C[C@H]1C(=O)N3[C@@H](Cc4c(OC)c(C)c(OC)c(OC)c4[C@@H]3/C=C/c3ccccc3)C(=O)N1[C@H]2/C=C/c1ccccc1 (racemic); 5.06
13) COc1ccc(/C=C2\NC(=O)[C@@H]3Cc4cc(OC)c(OC)cc4[C@@H](c4ccccc4)N3C2=O)cc1OC; 4.89
14) COc1ccc(CCNC(=O)N2CCc3cc(OC)c(OC)cc3C2c2ccccc2Cl)cc1OC (racemic); 4.34
15) COc1cc2c(cc1OC)[C@H](c1ccc(Br)cc1)N(C(=O)N1CCc3cc(OC)c(OC)cc3[C@@H]1c1ccc(Br)cc1)CC2 (racemic); 5.66
16) COc1cc2c(cc1OC)[C@@H](c1ccc(C(F)(F)F)cc1)N(C(=O)N1CCc3cc(OC)c(OC)cc3[C@@H]1c1ccc(C(F)(F)F)cc1)CC2; 4.97
17) COc1ccc(CCNC(=O)N2CCc3cc(OC)c(OC)cc3C2c2ccc(Br)cc2)cc1OC (stereo not drawn); 4.32
